test system: full length H-ras mRNA (activated, codon 12); experiment: ras transactivation reporter gene system; details: Table 5, antisense activity against H-ras; listed as Deoxy
metric name: IC50 (µM)
Answer with a number only, understood to be in µM.

Q: Item CCACACCGACGGCGCCC [2570] (phosphorothioate, further chemistry not given here) [compound 2570] : provide IC50
A: 0.15

* * *

test system: full length H-ras mRNA (activated, codon 12); test: ras transactivation reporter gene system; settings: Table 5, antisense activity against H-ras; listed as O-Methyl
metric name: pIC50
By convention, pIC50 is the negative base-10 log of a molar concentration.

Q: Item CCACACCGACGGCGCCC [3985] (chemistry not given here) [compound 3985] : provide pIC50
A: 7.70
